Test system: Conyza canadensis (L.) (ERICA)
Assay: Postemergence herbicide evaluation, percent reduction in plant size vs untreated control, 21 days after treatment
Assay type: in vivo, Conyza canadensis (L.) (Horseweed)
Details: Erigeron canadensis, post-emergence, 504 h, ERICA, rate 280 g ae/ha, postemergence; read-out: Control/Injury
Grouping key: pest or weed control at 280 g/ha. Bins: low (below 10%), intermediate (10% to below 30%), high (30% or more)

| molecule | label-value |
| --- | --- |
| COc1c(Cl)ccc(Cl)c1C(=O)n1oc2ccccc2c1=O | intermediate |
| COc1c(Cl)ccc(Cl)c1C(=O)NOCc1ccccc1 | low |
| COc1c(Cl)ccc(Cl)c1C(=O)Oc1ncn(-c2ccccc2)n1 | high |
| COc1c(Cl)ccc(Cl)c1C(=O)NOc1ccc([N+](=O)[O-])cc1 | high |
| COc1c(Cl)ccc(Cl)c1C(=O)N(C)OC | low |
| C=CCONC(=O)c1c(Cl)ccc(Cl)c1OC | low |
| COc1c(Cl)ccc(Cl)c1C(=O)NOC1CCCCO1 (centres unmarked) | intermediate |
| COc1c(Cl)ccc(Cl)c1C(=O)OCc1cc(COC(=O)c2c(Cl)ccc(Cl)c2OC)cc(COC(=O)c2c(Cl)ccc(Cl)c2OC)c1 | low |
| COc1c(Cl)ccc(Cl)c1C(=O)Oc1nc(-c2ccccc2)cs1 | high |
| COc1c(Cl)ccc(Cl)c1C(=O)NNc1nc2ccccc2o1 | low |
| COc1c(Cl)ccc(Cl)c1C(=O)NN1CCOCC1 | intermediate |
| COc1c(Cl)ccc(Cl)c1C(=O)O/N=C/c1cc(/C=N/OC(=O)c2c(Cl)ccc(Cl)c2OC)cc(/C=N/OC(=O)c2c(Cl)ccc(Cl)c2OC)c1 | high |
| COCCONC(=O)c1c(Cl)ccc(Cl)c1OC | low |
| CCN(CC)C(=O)c1c(Cl)ccc(Cl)c1OC | low |
| COc1c(Cl)ccc(Cl)c1C(=O)Oc1noc2ccccc12 | high |
| COc1c(Cl)ccc(Cl)c1C(=O)n1ncc2ccccc21 | high |
| COc1c(Cl)ccc(Cl)c1C(=O)O/N=C(\N)c1ccccc1 | high |
| COc1c(Cl)ccc(Cl)c1C(=O)n1cnc2ccccc21 | intermediate |
| COc1c(Cl)ccc(Cl)c1C(=O)NCc1ccccc1 | low |
| COc1c(Cl)ccc(Cl)c1C(=O)Oc1cc(C(F)(F)F)n(C)n1 | high |

----------
System: Amaranthus palmeri (AMAPA)
Test: Postemergence herbicide evaluation, percent reduction in plant size vs untreated control, 21 days after treatment
Type: in vivo, Amaranthus palmeri (Palmer amaranth)
Details: post-emergence, 504 h, R-AMAPA, rate 140 g ae/ha, postemergence, percent reduction vs untreated control, 21 days after treatment, read-out: Control/Injury
Listing: pest or weed control at 140 g/ha of selected molecules
recorded-endpoint: pest or weed control at 140 g/ha (%)

| molecule | recorded-endpoint | test-result |
| --- | --- | --- |
| COc1c(Cl)ccc(Cl)c1C(=O)ONC(=O)c1ccccc1 | pest or weed control at 140 g/ha | 70 |
| COc1c(Cl)ccc(Cl)c1C(=O)O/N=C/c1cccc(/C=N/OC(=O)c2c(Cl)ccc(Cl)c2OC)c1 | pest or weed control at 140 g/ha | 70 |
| COc1c(Cl)ccc(Cl)c1C(=O)O/N=C(\C)c1cccnc1 | pest or weed control at 140 g/ha | 90 |
| COc1c(Cl)ccc(Cl)c1C(=O)NS(=O)(=O)c1nccn1C | pest or weed control at 140 g/ha | 13 |
| COc1c(Cl)ccc(Cl)c1C(=O)Oc1ccc(Cl)cc1 | pest or weed control at 140 g/ha | 55 |
| COc1c(Cl)ccc(Cl)c1C(=O)O/N=C(\N)CCCC/C(N)=N/OC(=O)c1c(Cl)ccc(Cl)c1OC | pest or weed control at 140 g/ha | 55 |
| COc1c(Cl)ccc(Cl)c1C(=O)ONC(N)=O | pest or weed control at 140 g/ha | 13 |
| COc1c(Cl)ccc(Cl)c1C(=O)O/N=C(\N)CCCCC/C(N)=N/OC(=O)c1c(Cl)ccc(Cl)c1OC | pest or weed control at 140 g/ha | 43 |
| COc1c(Cl)ccc(Cl)c1C(=O)O/N=C(\N)CCC/C(N)=N/OC(=O)c1c(Cl)ccc(Cl)c1OC | pest or weed control at 140 g/ha | 59 |
| CCOC(=O)/C(C#N)=N/OC(=O)c1c(Cl)ccc(Cl)c1OC | pest or weed control at 140 g/ha | 72 |

----------
Test system: Conyza canadensis (L.) (ERICA)
Experiment: Postemergence herbicide evaluation, percent reduction in plant size vs untreated control, 21 days after treatment
Format: in vivo, Conyza canadensis (L.) (Horseweed)
Settings: Erigeron canadensis, post-emergence, 504 h, ERICA, rate 140 g ae/ha, postemergence; read-out: Control/Injury
# cutoff 10% applies to pest or weed control at 140 g/ha; >= gives TRUE, < gives FALSE

| compound | label-value |
| --- | --- |
| COc1c(Cl)ccc(Cl)c1C(=O)NNCc1ccccc1 [Compound A-111] | FALSE |
| COc1c(Cl)ccc(Cl)c1C(=O)Oc1noc2ccccc12 [Compound A-122] | TRUE |
| COc1c(Cl)ccc(Cl)c1C(=O)N(C)OC [Compound A-129] | TRUE |
| COc1c(Cl)ccc(Cl)c1C(=O)O/N=C(\N)c1ccccc1 [Compound A-150] | TRUE |
| COc1c(Cl)ccc(Cl)c1C(=O)Oc1ncn(-c2ccccc2)n1 [Compound A-121] | TRUE |
| COc1c(Cl)ccc(Cl)c1C(=O)NOc1ccccc1 [Compound A-124] | FALSE |
| COc1c(Cl)ccc(Cl)c1C(=O)NNc1ccccc1 [Compound A-131] | TRUE |
| COc1c(Cl)ccc(Cl)c1C(=O)NOc1ccc([N+](=O)[O-])cc1 [Compound A-97] | TRUE |
| COc1c(Cl)ccc(Cl)c1C(=O)N1C(=O)C(=O)c2ccccc21 [Compound A-116] | FALSE |
| COc1c(Cl)ccc(Cl)c1C(=O)N1CCCCO1 [Compound A-104] | FALSE |
| COc1c(Cl)ccc(Cl)c1C(=O)n1oc2ccccc2c1=O [Compound A-130] | TRUE |
| COc1c(Cl)ccc(Cl)c1C(=O)NN1CCOCC1 [Compound A-127] | TRUE |
| COc1c(Cl)ccc(Cl)c1C(=O)n1cnc2ccccc21 [Compound A-115] | FALSE |
| COc1c(Cl)ccc(Cl)c1C(=O)NNc1nc2ccccc2o1 [Compound A-109] | FALSE |
| COc1c(Cl)ccc(Cl)c1C(=O)NOC1CCCCO1 (stereo not drawn) [Compound A-100] | FALSE |
| COc1c(Cl)ccc(Cl)c1C(=O)Nc1ccon1 [Compound A-106] | FALSE |
| COc1c(Cl)ccc(Cl)c1C(=O)Oc1nccs1 [Compound A-103] | FALSE |
| COc1c(Cl)ccc(Cl)c1C(=O)NNc1nc(C)cs1 [Compound A-108] | FALSE |
| CCc1nnc(OC(=O)c2c(Cl)ccc(Cl)c2OC)s1 [Compound A-119] | FALSE |
| COc1c(Cl)ccc(Cl)c1C(=O)n1ccnc1 [Compound A-126] | TRUE |
| COc1c(Cl)ccc(Cl)c1C(=O)O [Dicamba, 3,6-dichloro-2-methoxybenzoic acid, reference compound] | TRUE |
| C=CCONC(=O)c1c(Cl)ccc(Cl)c1OC [Compound A-101] | FALSE |
| COc1c(Cl)ccc(Cl)c1C(=O)Nc1ccnn1C [Compound A-134] | FALSE |
| COCCONC(=O)c1c(Cl)ccc(Cl)c1OC [Compound A-95] | FALSE |
| COc1c(Cl)ccc(Cl)c1C(=O)ONC(=O)c1cccnc1 [Compound A-94] | TRUE |
| CCN(CC)C(=O)c1c(Cl)ccc(Cl)c1OC [Compound A-107] | FALSE |
| COc1c(Cl)ccc(Cl)c1C(=O)NNc1ccc([N+](=O)[O-])cc1 [Compound A-132] | TRUE |
| COc1c(Cl)ccc(Cl)c1C(=O)O/N=C/c1cc(/C=N/OC(=O)c2c(Cl)ccc(Cl)c2OC)cc(/C=N/OC(=O)c2c(Cl)ccc(Cl)c2OC)c1 [Compound A-99] | TRUE |
| COc1c(Cl)ccc(Cl)c1C(=O)n1ncc2ccccc21 [Compound A-113] | TRUE |
| COc1c(Cl)ccc(Cl)c1C(=O)OCc1cc(COC(=O)c2c(Cl)ccc(Cl)c2OC)cc(COC(=O)c2c(Cl)ccc(Cl)c2OC)c1 [Compound A-123] | FALSE |
| COc1c(Cl)ccc(Cl)c1C(=O)NCc1ccccc1 [Compound A-114] | FALSE |
| COc1c(Cl)ccc(Cl)c1C(=O)Oc1nc(-c2ccccc2)cs1 [Compound A-120] | TRUE |
| COc1c(Cl)ccc(Cl)c1C(=O)Oc1cc(C(F)(F)F)n(C)n1 [Compound A-118] | TRUE |
| COc1c(Cl)ccc(Cl)c1C(=O)NOCc1ccccc1 [Compound A-98] | FALSE |
